- MEASUREMENT TARGET: TYK2 (Homo sapiens)
- Construct: endogenous in cells; host or cells: Molt4 (ATCC CRL-1582) and Ramos (ATCC CRL-1596), mixed lysate 1:2
- Sequence (P29597 whole entry): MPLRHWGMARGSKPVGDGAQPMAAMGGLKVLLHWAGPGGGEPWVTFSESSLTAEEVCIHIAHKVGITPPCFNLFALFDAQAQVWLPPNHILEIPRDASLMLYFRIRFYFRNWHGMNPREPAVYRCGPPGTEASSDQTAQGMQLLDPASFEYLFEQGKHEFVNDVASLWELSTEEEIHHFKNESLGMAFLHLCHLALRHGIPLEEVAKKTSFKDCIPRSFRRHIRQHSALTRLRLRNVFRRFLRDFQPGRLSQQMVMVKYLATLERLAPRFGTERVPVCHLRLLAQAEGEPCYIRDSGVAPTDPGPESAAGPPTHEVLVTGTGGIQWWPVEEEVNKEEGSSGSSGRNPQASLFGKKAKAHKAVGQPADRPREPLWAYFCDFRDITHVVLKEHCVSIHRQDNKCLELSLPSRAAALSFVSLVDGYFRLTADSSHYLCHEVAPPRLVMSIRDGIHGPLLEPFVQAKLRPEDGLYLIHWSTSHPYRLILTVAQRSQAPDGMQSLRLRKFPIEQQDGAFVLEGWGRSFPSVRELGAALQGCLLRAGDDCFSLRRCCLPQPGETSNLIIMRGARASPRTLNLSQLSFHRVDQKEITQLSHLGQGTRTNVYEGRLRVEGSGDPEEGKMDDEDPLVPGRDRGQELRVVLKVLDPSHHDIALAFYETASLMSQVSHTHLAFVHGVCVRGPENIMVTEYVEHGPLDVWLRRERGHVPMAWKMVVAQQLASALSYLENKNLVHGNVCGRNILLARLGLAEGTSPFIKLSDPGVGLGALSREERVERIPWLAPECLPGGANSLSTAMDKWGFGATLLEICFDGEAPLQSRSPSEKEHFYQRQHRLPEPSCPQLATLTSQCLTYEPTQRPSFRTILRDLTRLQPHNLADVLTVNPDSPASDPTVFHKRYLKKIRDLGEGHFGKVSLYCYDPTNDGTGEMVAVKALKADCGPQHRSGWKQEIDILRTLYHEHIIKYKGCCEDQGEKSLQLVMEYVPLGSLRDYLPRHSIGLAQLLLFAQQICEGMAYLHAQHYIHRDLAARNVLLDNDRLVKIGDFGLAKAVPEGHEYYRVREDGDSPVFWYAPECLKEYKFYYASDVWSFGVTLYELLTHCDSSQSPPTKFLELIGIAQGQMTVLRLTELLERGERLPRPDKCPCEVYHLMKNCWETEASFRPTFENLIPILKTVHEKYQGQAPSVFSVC
- PROTOCOL TEXT: Kinobeads assay, TYK2 (competition binding in mixed Molt4/Ramos cell lysate, dot blot detection)
- MEASUREMENT CONDITIONS: Kinobeads assay, Molt4/Ramos lysate; read-out: TYK2 Band (Kinobeads assay potency, IC50)
MEASUREMENT KIND: IC50

// sample CS(=O)(=O)NCc1cccc(CNc2nc(Nc3cnn(CC(=O)N4CCC[C@@H]4C#N)c3)ncc2Cl)c1 , its IC50 was 100 to 1000 nM

// sample COc1ccc(F)c(CNc2nc(Nc3cnn(C)c3)ncc2F)c1F , its IC50 was 10 to 100 nM

// sample NC(=O)Cn1cc(Nc2nccc(NCc3c(F)cccc3F)n2)cn1 , its IC50 was 10 to 100 nM

// sample N#Cc1c(F)cccc1CNc1nc(Nc2cnn(CC(N)=O)c2)ncc1Cl , its IC50 was 100 to 1000 nM

// sample CNC(=O)Cn1cc(Nc2ncc(F)c(NCc3c(Cl)cccc3Cl)n2)cn1 , its IC50 was 10 to 100 nM

// sample Cc1ccc(F)c(CNc2nc(Nc3cn[nH]c3)ncc2Cl)c1F , its IC50 was 10 to 100 nM

// sample OCCn1cc(Nc2ncc(Cl)c(NCc3cc(OC(F)F)ccc3F)n2)cn1 , its IC50 was 10 to 100 nM

// sample Cn1cc(Nc2ncc(Cl)c(NCc3cc(OC(F)F)ccc3F)n2)cn1 , its IC50 was 10 to 100 nM

// sample COc1c(F)cccc1CNc1nc(Nc2cnn(CC(N)=O)c2)ncc1Cl , its IC50 was 100 to 1000 nM
